Where do the numbers come from? From patent US10774097B2.

# System: CT26CL25
# assay-text: Cytotoxicity MTT assay, CT26CL25
# Assay type: cell-based
# study-conditions: MTT assay (top value)
pIC50: −log10 of the molar value.

{"columns": ["compound", "pIC50"],
 "data": [
  ["CCCCCC(O)c1cccc(OCc2ccc3ccccc3n2)c1 (stereo not shown) [Rev-5901, reference compound]", 4.55]
]}

----------
# assay-text: Solubility tests in ethanol and DMSO
# Type: physicochemical
# study-conditions: organic solvent or mixture, thermodynamic from solid; ethanol; solvent added until clear solution; read-out: Solubility in EtOH

{"columns": ["compound", "solubility"],
 "data": [
  ["CCCCCC(O)c1cccc(OCc2ccc3ccccc3n2)c1 (stereo not shown) [Rev-5901, reference compound]", "29.7 mM"]
]}

----------
# System: A375
# assay-text: Cytotoxicity crystal violet (CV) assay, A375
# Type: cell-based
# study-conditions: Homo sapiens, A-375; CV assay (bottom value)
parameter: IC50 (µM)

{"columns": ["molecule", "parameter", "endpoint-result"],
 "data": [
  ["CCCCCC(O)c1cccc(OCc2ccc3ccccc3n2)c1 (stereo not shown) [Rev-5901, reference compound]", "IC50", 46.5]
]}

----------
# System: SW480
# assay-text: Cytotoxicity crystal violet (CV) assay, SW480
# Assay type: cell-based
# study-conditions: Homo sapiens, SW480; CV assay (bottom value)
pIC50: −log10 of the molar value.

{"columns": ["compound", "pIC50"],
 "data": [
  ["CCCCCC(O)c1cccc(OCc2ccc3ccccc3n2)c1 (stereo not shown) [Rev-5901, reference compound]", "< 4.30"]
]}
